Target: Cheytin 2
Experiment: ITC
VALUE_KIND: Kd (nM)
Lab book: enter the figure in nM, no units written.

What measured Kd goes with P2 domain of the histidine kinase CheA (domain or fragment, biotin (in vivo biotinylation, AviTag)) GFKTFYIKVILKEGTQLKSARIYLVFHKLEELKCEVVRTIPSVEEIEEEKFENEVELFVISPVDLEKLSEALSSIADIERVIIKEV ? 110
